# Tested on: COLO 205
# Assay Notes: NCI tumour cell line growth inhibition, 48 h
The source made the active and inactive calls. Rule as the data show it: active = GI50 up to about 1.1 µM and inactive = higher.
I'd appreciate it if you could supply GI50 values for the items below.

CN(C)c1nc2n(CCO)c(-c3ccccc3)c(-c3ccccc3)nc-2c(=O)n1 : > 100 µM (inactive)
Nc1nc(N)c2c(n1)CCC(S(=O)(=O)c1ccc3ccccc3c1)C2 (centres undefined) : 8.38 µM (inactive)
COC(=O)C(Cc1ccc(N(C)C)cc1)(NC(=O)c1ccccc1)P(=O)(OC)OC (centres undefined) : > 100 µM (inactive)

Next compound, GI50 to be filled in.
Q: Give the measured GI50 of COc1cc([C@@H]2c3cc4c(cc3[C@@H](NC(=O)c3ccc(N)cc3)C3COC(=O)[C@@H]32)OCO4)cc(OC)c1O (some centres undefined) .
Ans: 10.8 µM (inactive)

* * *

# Tested on: UACC-62
# Assay Notes: NCI tumour cell line growth inhibition, 48 h
Calls of active or inactive are those of the source. Cut-off read from the data, not from the text of the source: active = GI50 up to about 1.1 µM and inactive = higher.
Hi there, use one of these labels in your reply, thanks! 1 (yes) for active, 0 (no) for inactive

Solved entries (count: 8):
C=CCCCCOC1C=CC(O)C(CO)O1 (stereo not given) : 0 (no)
N=C(N)NS(=O)(=O)c1ccc(Nc2c3ccccc3nc3ccc(C(=O)Nc4ccc(S(N)(=O)=O)cc4)cc23)cc1 : 0 (no)
CN(CCn1cnc2c1c(=O)n(C)c(=O)n2C)C1CCCCC1 : 0 (no)
O=C1C=C/C(=C/[C@H]2SSC=C[C@]23C=CC(=O)C3)C1 : 0 (no)
COc1ccc2nc(NC(=O)C(=O)CC(=O)c3ccc(Cl)cc3)sc2c1 : 0 (no)
c1ccc([P+](c2ccccc2)(c2ccccc2)c2ccc(-c3ccc([P+](c4ccccc4)(c4ccccc4)c4ccccc4)cc3)cc2)cc1 : 0 (no)
COC(=O)CCCc1ccc2c(c1)CC1(Cc3ccccc3C1)C2 : 0 (no)
O=C(CC(=O)n1nc(-c2ccccc2)c(/N=N/c2ccc(Cl)cc2)c1-c1ccccc1)Nc1cccc(Cl)c1 : 0 (no)

Q: Check the results log: what was the call for `CC(C)(CN1CCCCC1)C(=O)/C=C/c1ccc(Cl)cc1` ?
Ans: 0 (no)

Q: Check the results log: what was the call for `Cc1cc(=O)nc(S(=O)(=O)NC(=S)Nc2ccc(Cl)cc2)[nH]1` ?
Ans: 0 (no)

Q: Check the results log: what was the call for `O=C(NC(=O)c1ccccc1[N+](=O)[O-])Nc1ccc(Oc2ncc(Cl)cn2)c(C(F)(F)F)c1` ?
Ans: 1 (yes)

Q: Check the results log: what was the call for `C=C1C[C@@H](O)C[C@@]2(C)C[C@@H]3OC(=O)C(=C)[C@@H]3C[C@H]12` ?
Ans: 0 (no)

Q: Check the results log: what was the call for CC12C3CC4C5CC(C(C53)[C@@H]1NCc1ccccc1)C42 (stereo not given in full) ?
Ans: 0 (no)

Q: Check the results log: what was the call for CC(=O)NC1=C(C)C(=O)c2c(nc3n2CCC3OC(=O)c2ccccc2)C1=N (stereo not given) ?
Ans: 1 (yes)

Q: Check the results log: what was the call for CCOC(=O)C1(C(F)(F)F)N=C(CC)OC(N2CCOCC2)=N1 (stereo not given) ?
Ans: 0 (no)

* * *

# System: IGROV-1
# Assay Notes: NCI tumour cell line growth inhibition, 48 h
Active and inactive are the calls of the source. Cut-off read from the data, not from the text of the source: active = GI50 up to about 1.1 µM and inactive = higher.
I'd appreciate it if you could supply GI50 values for the items below.

Answered cases to consult:
O=C(O)CNC(=O)c1ccc([As](=O)(O)O)cc1 : > 100 µM (inactive)
C=C(C)CC1=C(OCC)C(OC)(OCC)C1=O (centres undefined) : > 100 µM (inactive)
Cc1ccc(O)c(C2=NNC(c3cccc(Br)c3)C2)c1 (centres undefined) : 13 µM (inactive)

Q: Give the measured GI50 of `CC(=O)Nc1cc(N(CCOS(C)(=O)=O)CCOS(C)(=O)=O)ccc1N=O` .
Ans: > 100 µM (inactive)

src = ChEMBL document CHEMBL1201862
